Experiment: Tmax in CD-1 mouse at 30 mg/kg, po measured at 4 hrs post-dose
Type: ADME, organism-based
Conditions: in vivo
metric: Tmax (h)

1) O=S(=O)(c1ccc(Cl)cc1)N1[C@H]2CC[C@@H]([C@H]1c1ccc(C(F)(F)F)cc1)[C@@H](O)C2	2

###

Assay: Inhibition of human PSEN1/APH1B expressed in MEF cells with Psen1/2 double knockout/Aph1ABC triple knockout by ELISA
Format: cell-based
pIC50: −log10 of the molar value.
Entry flag: T if pIC50 reaches 7; F if it does not.

1) O=C1C[C@@H]2CC[C@H]1[C@@H](c1ccc(C(F)(F)F)nc1)N2S(=O)(=O)c1ccc(Cl)cc1 (racemic)	F
2) CC(=O)Nc1ccc([C@@H]2[C@@H]3CC[C@@H](C[C@@H]3O)N2S(=O)(=O)c2ccc(Cl)cc2)cc1 (racemic)	T
3) O=C1C[C@@H]2CC[C@H]1[C@@H](c1ccc(C(F)(F)F)cc1)N2S(=O)(=O)c1ccc(F)cc1 (racemic)	F
4) O=S(=O)(c1ccc(Cl)cc1)N1[C@H]2CC[C@@H]([C@H]1c1ccc(OC(F)(F)F)cc1)[C@@H](O)C2 (racemic)	T
5) Cc1ccc(S(=O)(=O)N2[C@H]3CC[C@@H]([C@H]2c2ccc(C(F)(F)F)cc2)[C@@H](O)C3)cc1 (racemic)	T
6) O=C1C[C@@H]2CC[C@H]1[C@@H](c1ccc(F)c(F)c1)N2S(=O)(=O)c1ccc(Cl)cc1 (racemic)	F
7) O=C1C[C@@H]2CC[C@H]1[C@@H](c1ccc(C(F)(F)F)cc1)N2S(=O)(=O)c1ccc(Cl)cc1 (racemic)	T

###

Assay: Kinetic solubility of compound at pH 7.4
Format: physicochemical
Conditions: buffer, read-out: Kinetic_solubility
A collection of compounds and their measured solubility kinetic
metric: solubility kinetic (µM)

1. O=S(=O)(c1ccc(Cl)cc1)N1[C@H]2CC[C@@H]([C@H]1c1ccc(C(F)(F)F)cc1)[C@@H](O)C2	18
2. N#Cc1ccc([C@@H]2[C@@H]3CC[C@@H](C[C@@H]3O)N2S(=O)(=O)c2ccc(Cl)cc2)cn1	7

###

Target: Cytochrome P450 2C19 (Homo sapiens)
Sequence (P33261 whole entry): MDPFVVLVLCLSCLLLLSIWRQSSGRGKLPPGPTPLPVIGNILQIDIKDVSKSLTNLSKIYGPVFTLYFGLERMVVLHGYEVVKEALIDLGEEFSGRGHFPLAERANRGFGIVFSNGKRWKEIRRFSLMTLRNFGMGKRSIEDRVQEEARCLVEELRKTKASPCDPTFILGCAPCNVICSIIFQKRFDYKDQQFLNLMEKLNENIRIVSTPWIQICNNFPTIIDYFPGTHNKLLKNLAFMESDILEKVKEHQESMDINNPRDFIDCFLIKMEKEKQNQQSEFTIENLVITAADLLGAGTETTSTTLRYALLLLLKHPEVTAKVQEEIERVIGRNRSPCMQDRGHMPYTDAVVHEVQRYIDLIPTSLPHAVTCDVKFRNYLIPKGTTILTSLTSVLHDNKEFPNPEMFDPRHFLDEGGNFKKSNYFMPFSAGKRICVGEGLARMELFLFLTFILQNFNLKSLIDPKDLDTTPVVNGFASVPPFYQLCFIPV
pIC50: −log10 of the molar value.
metric: pIC50

1. O=S(=O)(c1ccc(Cl)cc1)N1[C@H]2CC[C@@H]([C@H]1c1ccc(C(F)(F)F)cc1)[C@@H](O)C2	< 5.00

###

Assay: Kinetic solubility of compound at pH 4
Type: physicochemical
Conditions: buffer, read-out: Kinetic_solubility
metric: solubility kinetic (µM)

1. N#Cc1ccc([C@@H]2[C@@H]3CC[C@@H](C[C@@H]3O)N2S(=O)(=O)c2ccc(Cl)cc2)cn1	13
2. O=S(=O)(c1ccc(Cl)cc1)N1[C@H]2CC[C@@H]([C@H]1c1ccc(C(F)(F)F)cc1)[C@@H](O)C2	12

###

Assay: Inhibition of human PSEN1/APH1B expressed in MEF cells with Psen1/2 double knockout/Aph1ABC triple knockout by ELISA
Type: cell-based
pIC50: −log10 of the molar value.
Quick list: pIC50 per entry.
metric: pIC50

1) COc1ccc(S(=O)(=O)N2[C@H]3CC[C@H](C(=O)C3)[C@H]2c2ccc(C(F)(F)F)cc2)cc1 (racemic)	5.84
2) O=S(=O)(c1ccc(Cl)s1)N1[C@H]2CC[C@@H]([C@H]1c1ccc(F)c(F)c1)[C@@H](O)C2 (racemic)	7.13
3) COc1ccc([C@@H]2[C@@H]3CC[C@@H](CC3=O)N2S(=O)(=O)c2ccc(Cl)cc2)cn1 (racemic)	6.71
